Each entry below lists one item and its recorded relative integration efficiency (log2) value.
# Test system: VchCAST RNA-guided transposition machinery (E. coli BL21(DE3) host, lacZ target)
# assay-details: relative integration efficiency (T-RL orientation) vs wild-type transposon end (log2 (normalized fold change)); transposon end mutated: right end (5 bp flank + 75 bp right end); higher = more efficient transposition
Lab note: jot the number down without any unit.

Look over these answered cases.
ACATTTGTTGATACAACCATAAAATGATAATTACACCCATAAAAAGATAATTATCACACCCATAAATTGATATTGCCTCTGATCATAGTCAGACCAACATTGCTACGACCCGTATTCGCACCGACAC = -0.162
ACATTTGTTGATACAACCATCAAATGATAATTACACCCATCAATTGATAATTATCACACCCATCAATTGATATTGCCTCTGATCATAGTCAGACCAACATTGCTACGACCCGTATTCGCACCGACAC = -1.73

Exercise: Please indicate relative integration efficiency (log2) recorded for "ACATTTGTTGATACAACCATAAAATGATAATTACACCCATAAATTGATAATTATCTGACCCATAAATTGATATTGCCTCTGATCATAGTCAGACCAACATTGCTACGACCCGTATTCGCACCGACAC"
Key: -0.393

----------
# Tested on: VchCAST RNA-guided transposition machinery (E. coli BL21(DE3) host, lacZ target)
# assay-details: relative integration efficiency (T-LR orientation) vs wild-type transposon end (log2 (normalized fold change)); transposon end mutated: right end (5 bp flank + 75 bp right end); higher = more efficient transposition
Given measured relative integration efficiency (log2), output label 1 if it is greater than or equal to 0.8 and label 0 if not.

Exercise: Does the reported relative integration efficiency (log2) for "ACATTTGTTGATACAACCATAAAATGATAATTAATAATTATTTATAATCAGCAACTTAACCACACACCCATAAATTGATAATTATCAACAAACGCCCGGTCGCGGTACTCTGATCATAGTCAGACCA" fall at or above the 0.8 mark?
Key: label 0

Exercise: Is relative integration efficiency (log2) at least 0.8? Consider "ACATTTGTTGATACACCCATAAATTGATATTGCCAACCATAAAGTGATATTTATCAGTGGGTATTTAACTATAACGCTCTGATCATAGTCAGACCAACATTGCTACGACCCGTATTCGCACCGACAC"
Key: label 1

Exercise: Is the recorded value of relative integration efficiency (log2) equal to or greater than 0.8 for this sequence? "ACATTTGTTGATACACCCATAAATTGATATTGCCACCCATAAATTGATATTGCTCACAACCATAAGTTGATATTTTCTCTGATCATAGTCAGACCAACATTGCTACGACCCGTATTCGCACCGACAC"
Key: label 0

Exercise: Quick check, relative integration efficiency (log2) >= 0.8? "ACATTTGTTGATACAACCATAAAATGATAATTACTCTGATCACCCATAAATTGATAATTATCAGTGGGTATTTAACTATAACGCATAGTCAGACCAACATTGCTACGACCCGTATTCGCACCGACAC"
Key: label 1

Exercise: In plain terms: is recorded relative integration efficiency (log2) at least 0.8 for "ACATTTGTGGATCCAACCATAAAATGATAATTACACCCATAAATGGATCATTATCACACCCAATTTAACTATAACGCTCTGATCATAGTCAGACCAACATTGCTACGACCCGTATTCGCACCGACAC" ?
Key: label 1

Exercise: Does the sequence "ACATTTGTTGATACAACCAATAAATGATTATTACACCCATAAATTGATAATAATGACACCGAATTTAACTATAACGCTCTGATCATAGTCAGACCAACATTGCTACGACCCGTATTCGCACCGACAC" have recorded relative integration efficiency (log2) that is 0.8 or more?
Key: label 1

Exercise: Say whether "ACATTTGTTGATACAACCATAAAATGATAAGGCCACCCATAAATTGATAAGGCTCACACCCATAAATTGATATGTACTCTGATCATAGTCAGACCAACATTGCTACGACCCGTATTCGCACCGACAC" shows relative integration efficiency (log2) of 0.8 or more.
Key: label 0

Exercise: I'd appreciate it if you could say whether "ACATTTGTTGATACAACCATAAAATGATAATTACACCCATAAATTGATAATTTACACACCCATAAATTGATATTGCCTCTGATCATAGTCAGACCAACATTGCTACGACCCGTATTCGCACCGACAC" has relative integration efficiency (log2) at least equal to 0.8.
Key: label 0

Exercise: Decide: is the reported value of relative integration efficiency (log2) for "ACATTTGTTGATACAACCATAAAATGATTTTTACACCCATAAATTGATAATTATCACACCCATAAATTGATATTGCCTCTGATCATAGTCAGACCAACATTGCTACGACCCGTATTCGCACCGACAC" equal to or greater than 0.8?
Key: label 0

Exercise: relative integration efficiency (log2) >= 0.8 for "ACATTTGTGGATACAACCCTAAAATGATAATTACACCCATAAATGGATAATTATCACACCCAATTTAACTATAACGCTCTGATCATAGTCAGACCAACATTGCTACGACCCGTATTCGCACCGACAC" ?
Key: label 0

----------
# Test system: VchCAST RNA-guided transposition machinery (E. coli BL21(DE3) host, lacZ target)
# assay-details: relative integration efficiency (T-LR orientation) vs wild-type transposon end (log2 (normalized fold change)); transposon end mutated: right end (5 bp flank + 75 bp right end); higher = more efficient transposition
Reported relative integration efficiency (log2) by item:
Simply state the number, no unit and no words.

Worked cases, answers included:
ACATTTGTTGATACAACCATAAAGTGATATTTACAACCATAAGTTGATATTTTTCACACCCATAAATTGATAATTACTCTGATCATAGTCAGACCAACATTGCTACGACCCGTATTCGCACCGACAC = 0.0675
ACATTTGTTGATACAACCATAAAATGATAATTACACCCAGCAATTGATAATTATCACACCCATAAATTGATATTGCCTCTGATCATAGTCAGACCAACATTGCTACGACCCGTATTCGCACCGACAC = -2.55
ACATTTGTTCATACAACCCTAAAATGATAATTACACCCATAAATTGATCATTATCACACCCAATTTAACTATAACGCTCTGATCATAGTCAGACCAACATTGCTACGACCCGTATTCGCACCGACAC = -1.36
ACATTTGTTGATACAACCATAAAATGCTAATTACACCCATAAATTGCTAATTATCACACCCATAAATTGCTATTGCCTCTGATCATAGTCAGACCAACATTGCTACGACCCGTATTCGCACCGACAC = -0.567
ACATTTGTTGATACAACCATAAAATGATAATTACACCCATAAATTGATATTGCTCACAACCATATATTGATATCTCCTCTGATCATAGTCAGACCAACATTGCTACGACCCGTATTCGCACCGACAC = 0.579

Exercise: Tell me its relative integration efficiency (log2) on VchCAST RNA-guided transposition machinery (E. coli BL21(DE3) host, lacZ target): "ACATTTGTTGATACAACCATAAAATGATAATTACACCCATAAATTGATAATGCGAACACCCATAAATTGATATTGCCTCTGATCATAGTCAGACCAACATTGCTACGACCCGTATTCGCACCGACAC"
Key: 0.16

Exercise: State, for VchCAST RNA-guided transposition machinery (E. coli BL21(DE3) host, lacZ target), measured relative integration efficiency (log2) of the sequence listed here: "ACATTAGTGGATACAACCATAAAATGATAATTACACCCATAAATTCATCATTATCACACCCAATTTAACTATAACGCTCTGATCATAGTCAGACCAACATTGCTACGACCCGTATTCGCACCGACAC"
Key: -4.73

Exercise: Param request: relative integration efficiency (log2) | system VchCAST RNA-guided transposition machinery (E. coli BL21(DE3) host, lacZ target) | item "ACATTTGTTGATACAACCATAAAATGATAATTACACCCATAAATTGATAATTATCACACGGTAAAATTGATATTGCCTCTGATCATAGTCAGACCAACATTGCTACGACCCGTATTCGCACCGACAC"
Key: 2.35

Exercise: Provide relative integration efficiency (log2), system VchCAST RNA-guided transposition machinery (E. coli BL21(DE3) host, lacZ target), entry "ACATTTGTGGATCCAACCATAAAATGATAATTACACCCATAAATTCATAATTATCACACCCAATTTAACTATAACGCTCTGATCATAGTCAGACCAACATTGCTACGACCCGTATTCGCACCGACAC"
Key: 1.04

Exercise: Give reported relative integration efficiency (log2) for "ACATTTGTGGATACAACCATAAAATGATAATTACACCCATAAATTCATAATTATCACACCCAATTTAACTATAACGCTCTGATCATAGTCAGACCAACATTGCTACGACCCGTATTCGCACCGACAC" (VchCAST RNA-guided transposition machinery (E. coli BL21(DE3) host, lacZ target))
Key: 0.877

Exercise: For VchCAST RNA-guided transposition machinery (E. coli BL21(DE3) host, lacZ target), give relative integration efficiency (log2) of the listed sequence: "ACATTTGTTGATACAACCATAAAATGATAATTACACCCATAAATTGATAATATAGACACCCATAAATTGATATTGCCTCTGATCATAGTCAGACCAACATTGCTACGACCCGTATTCGCACCGACAC"
Key: -0.0877

Exercise: Would you please give the reported relative integration efficiency (log2) of "ACATTTGTTGATACAACCATAAAATGATAATTAACCCCATAAATTGATAATTATCACACCCATAAATTGATATTGCCTCTGATCATAGTCAGACCAACATTGCTACGACCCGTATTCGCACCGACAC" with VchCAST RNA-guided transposition machinery (E. coli BL21(DE3) host, lacZ target)?
Key: -0.881

Exercise: Tell me its relative integration efficiency (log2) on VchCAST RNA-guided transposition machinery (E. coli BL21(DE3) host, lacZ target): "ACATTTGTTGATACACACATAAAATGATAATTACACCCATAAATTGATAATTATCACACCCATAAATTGATATTGCCTCTGATCATAGTCAGACCAACATTGCTACGACCCGTATTCGCACCGACAC"
Key: -0.763

Exercise: # assay system VchCAST RNA-guided transposition machinery (E. coli BL21(DE3) host, lacZ target): give relative integration efficiency (log2) of "ACATTTGTGGATACAACCATAAAATGATAATTACACCCATAAATTCATAATTATCACCCCCAATTTAACTATAACGCTCTGATCATAGTCAGACCAACATTGCTACGACCCGTATTCGCACCGACAC"
Key: 1.27

Exercise: Please tell me the measured relative integration efficiency (log2) for "ACATTTGTTGATACAACCATAAAATGATAATTACACCCATAAATTGATAATTATCACACCCATAAATTGATATTGCCTCTGATCACAACCATAAAATGATAATTATAGTCAGACCAAGCACCGACAC" ; system: VchCAST RNA-guided transposition machinery (E. coli BL21(DE3) host, lacZ target).
Key: -0.402

Exercise: Look up VchCAST RNA-guided transposition machinery (E. coli BL21(DE3) host, lacZ target) data: relative integration efficiency (log2) of "ACATTTGTTGATACAACCATAAAATGATAATAACACCCATAAATTGATAATAATCACACCCATAAATTGATATTCCCTCTGATCATAGTCAGACCAACATTGCTACGACCCGTATTCGCACCGACAC" , then report it.
Key: -0.098

Exercise: Report relative integration efficiency (log2) on VchCAST RNA-guided transposition machinery (E. coli BL21(DE3) host, lacZ target) for this entry: "ACATTTGTTGATACAACCATAAAATCATCATTACACCCATAAATTGATAATTATCACACCCCATTTAACTATAACGCTCTGATCATAGTCAGACCAACATTGCTACGACCCGTATTCGCACCGACAC"
Key: 0.57

Exercise: Find relative integration efficiency (log2) for "ACATTTGTGGATACAACCCTAAAATGATAATTACACCCATAAATTCATCATTATCACCCCCAATTTAACTATAACGCTCTGATCATAGTCAGACCAACATTGCTACGACCCGTATTCGCACCGACAC" on VchCAST RNA-guided transposition machinery (E. coli BL21(DE3) host, lacZ target) and write it down.
Key: -1.47

Exercise: Please report relative integration efficiency (log2) with VchCAST RNA-guided transposition machinery (E. coli BL21(DE3) host, lacZ target) for item "ACATTTGATGATACAACCATATAATGATAATAACACCCATAAAATGATAATTATCACACCCAATTTAACTATAACGCTCTGATCATAGTCAGACCAACATTGCTACGACCCGTATTCGCACCGACAC" .
Key: 1.07

Exercise: State, for VchCAST RNA-guided transposition machinery (E. coli BL21(DE3) host, lacZ target), measured relative integration efficiency (log2) of the sequence listed here: "ACATTTGTTGATACAACCATAAAGTGATATTTACACCCATAAATTGATATTGCTCACAACCATAAAGTGATATTTACTCTGATCATAGTCAGACCAACATTGCTACGACCCGTATTCGCACCGACAC"
Key: 0.171
